assay: Tissue distribution of curcumin and THC at necropsy 15 minutes post-infusion; set-up: species or system Beagle dogs; conditions: both sexes, beagle, dog, in vivo, 10 mg/kg, Two hour infusion; H3PO4 stabilized; read-out: Average tissue concentration, Cortex
Readout label: concentration at 15 min (ng/g)
State the answer as a number, implicitly in ng/g.

Task item: // concentration at 15 min lookup, key: COc1cc(CCC(=O)CC(=O)CCc2ccc(O)c(OC)c2)ccc1O [THC, tetrahydrocurcumin]
Reply: 3.08

====

assay: in vivo; parameters: species or system Beagle dogs; conditions: both sexes, beagle, dog, in vivo, Kp [tissue]/[plasma], Urinary Bladder
Readout label: Kp at 8 h
Keep the answer to the number alone.

Task item: // Kp at 8 h lookup, key: COc1cc(/C=C/C(=O)CC(=O)/C=C/c2ccc(O)c(OC)c2)ccc1O [Curcumin, reference compound]
Reply: 0.152

====

assay: in vivo; design: species or system Beagle dogs; settings: both sexes, beagle, dog, in vivo, Kp [tissue]/[plasma], Lungs
Readout label: Kp at 2 h
Keep the answer to the number alone.

Task item: // Kp at 2 h lookup, key: COc1cc(/C=C/C(=O)CC(=O)/C=C/c2ccc(O)c(OC)c2)ccc1O [Curcumin, reference compound]
Reply: 0.413

====

test: Tissue distribution of curcumin and THC at necropsy 15 minutes post-infusion; parameters: species or system Beagle dogs; settings: both sexes, beagle, dog, in vivo, 10 mg/kg, Two hour infusion; H3PO4 stabilized; read-out: Average tissue concentration, Striatum
Readout label: concentration at 15 min (ng/g)
State the answer as a number, implicitly in ng/g.

Task item: // concentration at 15 min lookup, key: COc1cc(CCC(=O)CC(=O)CCc2ccc(O)c(OC)c2)ccc1O [THC, tetrahydrocurcumin]
Reply: 11.1

====

assay: Tissue distribution of curcumin and THC at necropsy 15 minutes post-infusion; parameters: species or system Beagle dogs; conditions: both sexes, beagle, dog, in vivo, 10 mg/kg, Eight hour infusion; H3PO4 stabilized; read-out: Average tissue concentration, Bladder
Readout label: concentration at 15 min (ng/g)
State the answer as a number, implicitly in ng/g.

Task item: // concentration at 15 min lookup, key: COc1cc(CCC(=O)CC(=O)CCc2ccc(O)c(OC)c2)ccc1O [THC, tetrahydrocurcumin]
Reply: 1.11

====

assay: Plasma pharmacokinetics of curcumin and THC during and after intravenous infusion of liposomal curcumin; assay type: in vivo, Beagle dogs; conditions: both sexes, Beagle, dog, in vivo, 10 mg/kg, 1.25 mg/kg/hr; 4 hr; mean±SE; read-out: [Plasma + PO4]
Readout label: concentration at 4 hr

Task item: // concentration at 4 hr lookup, key: COc1cc(CCC(=O)CC(=O)CCc2ccc(O)c(OC)c2)ccc1O [THC, tetrahydrocurcumin]
Reply: 193 ng/mL

====

Assay: Plasma pharmacokinetics of curcumin and THC during and after intravenous infusion of liposomal curcumin
Type: in vivo, Beagle dogs
Details: both sexes, Beagle, dog, in vivo, 10 mg/kg, 5 mg/kg/hr; 90 min; mean±SE; read-out: [Plasma + PO4]
Procedure: The results and analysis for the study are presented for intravenous infusion dosing of a total dose of 10 mg/kg infused over a period of either 2 or 8 hours. Plasma levels of curcumin and its metabolite, THC were measured at timed intervals post-dosing. […] Bioanalysis was performed on two sets of samples, one set that was treated with phosphoric acid and one set that was not treated with phosphoric acid. […] Values that were below the limit of quantification were assigned a value of 0. […]
Readout label: concentration at 90 min (ng/mL)
State the answer as a number, implicitly in ng/mL.

Task item: // concentration at 90 min lookup, key: COc1cc(CCC(=O)CC(=O)CCc2ccc(O)c(OC)c2)ccc1O [THC, tetrahydrocurcumin]
Reply: 2350
